- target.of.assay: BTK (Homo sapiens)
- Construct: High control=Cell group with added DMSO and without compound, indicating microplate readings without BTK degradation; endogenous in cells; host or cells: TMD-8
- Sequence (Q06187 whole entry): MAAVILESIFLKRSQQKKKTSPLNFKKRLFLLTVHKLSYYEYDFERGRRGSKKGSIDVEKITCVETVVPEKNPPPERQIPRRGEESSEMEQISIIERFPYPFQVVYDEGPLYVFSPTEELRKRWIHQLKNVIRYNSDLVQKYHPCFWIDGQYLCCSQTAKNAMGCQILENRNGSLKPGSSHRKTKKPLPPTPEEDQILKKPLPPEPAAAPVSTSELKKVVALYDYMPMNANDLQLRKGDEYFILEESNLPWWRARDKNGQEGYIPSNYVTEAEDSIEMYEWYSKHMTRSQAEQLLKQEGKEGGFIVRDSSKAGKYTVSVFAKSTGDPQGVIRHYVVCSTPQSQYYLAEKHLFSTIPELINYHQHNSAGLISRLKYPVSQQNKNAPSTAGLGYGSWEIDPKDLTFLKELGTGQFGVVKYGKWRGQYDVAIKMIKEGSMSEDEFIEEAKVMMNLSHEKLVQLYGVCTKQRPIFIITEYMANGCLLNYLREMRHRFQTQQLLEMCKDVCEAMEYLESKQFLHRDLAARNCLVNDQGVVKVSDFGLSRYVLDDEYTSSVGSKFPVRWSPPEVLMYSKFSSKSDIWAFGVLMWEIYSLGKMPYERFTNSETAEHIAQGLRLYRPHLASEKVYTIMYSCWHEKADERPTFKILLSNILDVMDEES
- run.description: BTK degradation in TMD-8 cells (HTRF assay)
- Type: cell-based
- test.context: 6 h treatment, IC50 (DC50) of BTK degradation

| molecule | target.of.assay | value.qualifier | DC50 / nM |
| --- | --- | --- | --- |
| Cc1cc(-c2ncnc3[nH]c4c(c23)CCC(N2CCN(C3CC(c5ccc([C@H]6CCC(=O)NC6=O)cc5)C3)CC2)C4)ccc1[C@@H](C)NC(=O)c1nc(C(C)(C)C)no1 (some centres unmarked) | BTK (Homo sapiens) | > | 2000 |
| COc1cc2c(cc1N1CCN(Cc3ccc4c(c3)C3(CC3)C(=O)N4C3CCC(=O)NC3=O)CC1)[nH]c1ncnc(-c3ccc([C@@H](C)NC(=O)c4nc(C(C)(C)C)no4)c(C)c3)c12 (some centres unmarked) | BTK (Homo sapiens) | = | 1.6 |
| CN1CCN(CC2CCN(c3ncnc4[nH]c5cc(N6CCN(CC7CCN(c8ccc(N9CCC(=O)NC9=O)cc8)CC7)CC6)ccc5c34)CC2)C1=O | BTK (Homo sapiens) | > | 2000 |
| COc1cc2c(cc1N1CCN(CCc3ccc(C4(C)CCC(=O)NC4=O)cc3)CC1)[nH]c1ncnc(-c3ccc([C@@H](C)NC(=O)c4nc(C(C)(C)C)no4)c(C)c3)c12 (some centres unmarked) | BTK (Homo sapiens) | = | 3.08 |
| Cc1c([C@@H](C)NC(=O)c2noc(C(C)(C)C)n2)ccc(-c2ncnc3[nH]c4cc(N5CCN(CC6CC(c7ccc(C8CCC(=O)NC8=O)cc7)C6)CC5)ccc4c23)c1F (some centres unmarked) | BTK (Homo sapiens) | = | 4.55 |
| Cc1cc(-c2ncnc3[nH]c4cc(N5CCN(CC6CCN(c7ccc(N8CCC(=O)NC8=O)c(C)c7)CC6)CC5)ccc4c23)c(F)cc1[C@@H](C)NC(=O)c1noc(C(C)(C)C)n1 | BTK (Homo sapiens) | = | 0.47 |
| Cc1cc(-c2ncnc3[nH]c4ccc(N5CCN(CC6CCN(c7ccc(N8CCC(=O)NC8=O)cc7)CC6)CC5)cc4c23)ccc1CNC(=O)c1nc(C(C)(C)C)no1 | BTK (Homo sapiens) | = | 4.94 |
| Cc1cc(-c2ncnc3[nH]c4cc(N5CCC6(CC5)CCN([C@H]5C[C@@H](c7ccc([C@H]8CCC(=O)NC8=O)cc7)C5)CC6)ccc4c23)ccc1[C@@H](C)NC(=O)c1nc(C(C)(C)C)no1 | BTK (Homo sapiens) | = | 3.46 |
